- Tested on: NCI-H460 lung
- test: NCI tumour cell line growth inhibition, 48 h
metric: TGI (µM)
I only need the number, in µM, no unit after it.

# smiles.input, result.unit, TGI
data = [
    ("O=C(/C=N/O)c1c(-c2ccccc2)[nH]c(-c2ccccc2)c1-c1ccccc1", "µM", 41.8),
    ("Cn1c2ccccc2c2c3c(c4c5ccccc5n(CCCCCC#N)c4c21)C(=O)N(O)C3=O", "µM", 2.34),
]

Proceeding to the next compound to report its TGI.
Look up TGI: NS(=O)(=O)c1ccc(-n2nc(-c3ccc(Cl)cc3)cc2C2=CC(=O)C=CC2=O)cc1
57.4

---

- System: HS 578T breast
- test: NCI tumour cell line growth inhibition, 48 h
Rule: True for TGI not less than 50 µM, False for anything less.

Reference set, count: 10
# compound, classification
measured = [
    ("Fc1ccc(Nc2nc(Nc3ccc(-c4nc5ccccc5[nH]4)cc3)nc(N3CCCC3)n2)cc1", "False"),
    ("Cc1ccc(/C=C(\\C#N)n2nnc3cc(F)c(F)cc32)cc1", "False"),
    ("CN(C)/[N+]([O-])=N/Oc1cc(Nc2ccc(C(=O)O)cc2)c([N+](=O)[O-])cc1[N+](=O)[O-]", "True"),
    ("O=C(/C=N/O)c1c(-c2ccccc2)[nH]c(-c2ccccc2)c1-c1ccccc1", "True"),
    ("NC(=O)NC(=O)CI", "False"),
    ("COC(=O)c1ccc2c(c1)nc(-c1ccc(Cl)cc1)n2-c1cc(C(C)(C)C)[nH]n1", "False"),
    ("CCc1nnc2sc(-c3ccc(-c4ccc(Cl)cc4Cl)o3)nn12", "True"),
    ("COc1ccc(C2CC(c3cc(OC)c(OC)c(OC)c3)=NN2)cc1 (stereo not given)", "True"),
    ("O=C(/C=C1\\N=C(c2ccccc2)N(c2ccc3c(c2)Sc2cc(N4C(=O)/C(=C/C(=O)/C=C/c5ccccc5)N=C4c4ccccc4)ccc2N3)C1=O)/C=C/c1ccccc1", "True"),
    ("COc1ccccc1NC(=S)N/N=C(/c1ccccc1)c1ccccn1", "True"),
]

Kindly determine if TGI recorded for Fc1ccc(C(=NCc2ccccc2)N2CCOCC2)cc1 is above or exactly 50 µM.
True

---

- Test system: HOP-62 NSCLC
- test: NCI tumour cell line growth inhibition, 48 h
TGI values for the molecules below.

Use these answered entries as a reference point.
# molecule, TGI
data = [
    ("CC(C)(C)CC(C)(C)Cc1ccc(OCCOCC[N+](C)(C)Cc2ccccc2)cc1", "6.73 µM"),
    ("CCc1nnc2sc(-c3ccc(-c4ccc(Cl)cc4Cl)o3)nn12", "> 100 µM"),
    ("CC(=O)NC1C(OCC(=O)NC(C)C(=O)NC(CCC(=O)NCCCCCNc2ccc([N+](=O)[O-])c3[nH]c4ccccc4c(=O)c23)C(N)=O)C(O)C(CO)OC1(C)OCc1ccccc1 (centres undefined)", "> 50 µM"),
]

Proceeding to the next molecule to report its TGI.
Look up TGI: C[Si](C)(C)C#C[I+]c1ccccc1
> 100 µM

---

- Tested on: NCI-H23 lung
- test: NCI tumour cell line growth inhibition, 48 h
TGI values for the molecules below.

Use these answered entries as a reference point.
# molecule, recorded.result
data = [
    ("COc1cc(-c2ccc(-c3ccc(C(=N)N)s3)s2)cc(OC)c1OC", "8.04 µM"),
    ("CCN1C(=O)N(c2c(F)c(OC)cc(OC)c2F)Cc2cnc3[nH]c(CN4CCOCC4)cc3c21", "> 100 µM"),
    ("Cc1cccc(Nc2cn(CCOc3ccccc3)c(=O)[nH]c2=O)c1", "> 100 µM"),
    ("CCOC(=O)[C@H]1Nc2ccc(O)cc2C2c3ccccc3CC21 (some centres undefined)", "> 100 µM"),
    ("Cn1c2ccccc2c2c3c(c4c5ccccc5n(CCCCCC#N)c4c21)C(=O)N(O)C3=O", "9.91 µM"),
    ("CC(=O)OCc1ccc(-c2nc(C#N)c(N)o2)o1", "> 10 µM"),
    ("CCP(=O)(CC)C(Cl)(Cl)C(=O)NC", "> 100 µM"),
    ("O=C(OCCOCCOC(=O)c1c[nH]cc1-c1ccccc1)c1c[nH]cc1-c1ccccc1", "33.7 µM"),
]

Proceeding to the next molecule to report its TGI.
Look up TGI: C[N+](C)(C)CCCCCc1c2nc(c(CCCCC[N+](C)(C)C)c3ccc([nH]3)c(CCCCC[N+](C)(C)C)c3ccc([nH]3)c(CCCCC[N+](C)(C)C)c3nc1C=C3)C=C2
> 100 µM

---

- Test system: HCT-15 colon
- test: NCI tumour cell line growth inhibition, 48 h
Where a SMILES comes first, the peptide text is derived from it. The star is where a group is joined. Boc = CC(C)(C)OC(=O)*; OBn = c1ccc(CO*)cc1; Bn = c1ccc(C*)cc1
log10(TGI) values for the molecules below.
Values are log10 of TGI in µM.

Look up log10(TGI): COc1ccc(OC)c2c1C[C@@H]1C(C#N)N3[C@H](Cc4c(OC)ccc(OC)c4[C@@H]3C)C(=O)N1[C@H]2C (stereo partly specified)
1.05

Look up log10(TGI): Fc1ccc(Nc2nc(Nc3ccc(-c4nc5ccccc5[nH]4)cc3)nc(N3CCCC3)n2)cc1
0.78

Look up log10(TGI): CCOC(=O)c1ccc(N=C/C=C(\Nc2ccc(C(=O)OCC)cc2)c2ccc3ccccc3c2)cc1
1.79

Look up log10(TGI): CN(C)/[N+]([O-])=N/Oc1cc(Nc2ccc(C(=O)O)cc2)c([N+](=O)[O-])cc1[N+](=O)[O-]
1.56

Look up log10(TGI): CC(C)CC(NC(=O)C(Cc1ccccc1)NC(=O)C(COCc1ccccc1)NC(=O)OC(C)(C)C)C(=O)OCc1ccccc1 (stereo not drawn) (Boc-Ser(Bn)-Phe-Leu-OBn; configuration not given here)
1.88

Look up log10(TGI): CC1OC(OC2C(CO)OC(O[C@H]3CC[C@@]4(C)C(=CC[C@H]5[C@@H]6C[C@@H]7O[C@](O)(CC[C@@H](C)COC8OC(CO)C(O)C(O)C8O)[C@@H](C)[C@@H]7[C@@]6(C)CC[C@@H]54)C3)C(OC3OC(C)C(O)C(O)C3O)C2O)C(O)C(O)C1O (stereo partly specified)
0.59

Look up log10(TGI): CCCCN(CCCC)CC(=O)c1ccc2cc(Cl)c3ccccc3c2c1
1.73

---

- Test system: NCI-H460 lung
- test: NCI tumour cell line growth inhibition, 48 h; in the data active = GI50 below about 0.43 µM; inactive = the rest
Please reply with one of these outcomes: TRUE for active, FALSE for inactive

Hey, what did the test say about COc1cc(-c2ccc(-c3ccc(C(=N)N)s3)s2)cc(OC)c1OC ?
FALSE

Hey, what did the test say about O=C1NC(=NCCc2ccccc2Cl)S/C1=C\c1ccc2ncccc2c1 ?
FALSE

Hey, what did the test say about CC1=C(C(=O)Nc2ccc(F)c(Cl)c2)C(c2cccc(Cl)c2)NC(=O)N1 (stereo not given) ?
FALSE

Hey, what did the test say about CSC(=S)N/N=C(\C)c1ccccn1 ?
TRUE

Hey, what did the test say about Cc1cc(S(N)(=O)=O)c(S/C(=N\NS(=O)(=O)c2ccc(Cl)cc2)c2ccc(Cl)cc2)cc1Cl ?
FALSE

Hey, what did the test say about NS(=O)(=O)c1ccc(-n2nc(-c3ccc(Cl)cc3)cc2C2=CC(=O)C=CC2=O)cc1 ?
FALSE

Hey, what did the test say about COc1ccc(/C=C(/C(=O)N2CCNCC2)c2cc(OC)c(OC)c(OC)c2)cc1O ?
FALSE

Hey, what did the test say about Cc1ccc(Cl)cc1Nc1nc(C(F)(F)F)ccc1C(=O)Oc1ccc(Cl)cc1 ?
FALSE

Hey, what did the test say about CCOc1ccc2c(c1)/C(=C\C=C\C1CC(C)C3CC(OCC)CCC3N1CC)CC(C)N2CC (stereo not given) ?
TRUE

Hey, what did the test say about O=C1c2cccnc2-c2nc(-c3ccc([N+](=O)[O-])cc3)cc3c2c1nc1ccccc13 ?
FALSE

---

- System: MDA-MB-231 breast
- test: NCI tumour cell line growth inhibition, 48 h
metric: TGI (µM)
I only need the number, in µM, no unit after it.

Use these answered entries as a reference point.
# compound, measurement.target, result.unit, recorded.result
records = [
    ("CC1=C(C)C(=O)C(C(C)C2=C(C)C(=O)C(C)=C(C)C2=O)=C(C)C1=O", "MDA-MB-231 breast", "µM", 30.4),
    ("CCOC(=O)Nc1ccc(S(=O)(=O)Nc2ccc(Br)cc2)cc1", "MDA-MB-231 breast", "µM", 93.5),
    ("CC1(c2cccc(C3CCC4(C=CC3=O)OCCO4)c2)OCCO1 (stereo not given)", "MDA-MB-231 breast", "µM", 26),
]

Look up TGI: Cc1[nH]n(C(=O)c2ccccc2O)c(=O)c1/C=C1\C(=O)C=Cc2ccccc21
26.8

Look up TGI: N#Cc1c2ccccc2c2nnc3cc(Cl)c(Cl)cc3n12
74.6

Look up TGI: O=Nc1c(-c2cccc([N+](=O)[O-])c2)nc2ncccn12
35.2

Look up TGI: CC(C)[C@]12O[C@H]1[C@@H]1O[C@]13[C@]1(O[C@H]1C[C@H]1c4c(C(=O)c5ccccc5)oc(OC(=O)c5ccccc5)c4CC[C@@]13C)[C@@H]2O
43.7
